# System: 889142-216-R-J1-PDC complex spheroid viability;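 further: spheroids exposed to compounds for seven days; 100% = DMSO vehicle control viability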
# PROTOCOL_DESCRIPTION: Anticancer human tumor 889142-216-R-J1-PDC patient-derived bladder carcinoma cell line growth inhibition [POLQ]
# CONDITION_SET: second compound 1 µM; first compound 3.16 µM; active compounds read low
Label 1 when viability, T/C is strictly below 50%; at or above that, label 0.

Solved entries:
>>> category_label("COc1cc2cc(C(=O)CCC(=O)O)sc2cc1OC + Nc1ccc(C#CCN(C(=O)Cc2ncc(C(F)(F)F)cc2C(F)(F)F)c2ccc(F)cc2)nn1")
0
>>> category_label("CC1COCCN1c1cc(C2(S(C)(=N)=O)CC2)nc(-c2ccnc3[nH]ccc23)n1 (configuration not stated) + Nc1ccc(C#CCN(C(=O)Cc2ncc(C(F)(F)F)cc2C(F)(F)F)c2ccc(F)cc2)nn1")
0
>>> category_label("O=c1[nH]cc(F)c(=O)[nH]1 + Nc1ccc(C#CCN(C(=O)Cc2ncc(C(F)(F)F)cc2C(F)(F)F)c2ccc(F)cc2)nn1")
0
>>> category_label("Nc1ccn(C2OC(CO)C(O)C2(F)F)c(=O)n1 (configuration not stated) + Cc1cccc(N(C)C(=O)C2C(O)CCN2c2nc(C)cc(C(F)(F)F)c2C#N)c1")
1
>>> category_label("COc1cc2cc(C(=O)CCC(=O)O)sc2cc1OC + COC1C(OC(N)=O)C(O)C(Oc2ccc3c(O)c(NC(=O)c4ccc(O)c(CC=C(C)C)c4)c(=O)oc3c2C)OC1(C)C")
0
>>> category_label("CC1COCCN1c1cc(C2(S(C)(=N)=O)CC2)nc(-c2ccnc3[nH]ccc23)n1 (configuration not stated) + COC1C(OC(N)=O)C(O)C(Oc2ccc3c(O)c(NC(=O)c4ccc(O)c(CC=C(C)C)c4)c(=O)oc3c2C)OC1(C)C")
1
>>> category_label("COc1ccc([C@@H](O)c2cc(-c3ncnc4cc(N5CCOCC5)ccc34)c(F)cc2Cl)nn1 + COC1C(OC(N)=O)C(O)C(Oc2ccc3c(O)c(NC(=O)c4ccc(O)c(CC=C(C)C)c4)c(=O)oc3c2C)OC1(C)C")
0
>>> category_label("COc1cccc2c1C(=O)c1c(O)c3c(c(O)c1C2=O)CC(O)(C(=O)CO)CC3OC1CC(N)C(O)C(C)O1 (configuration not stated) + COC1C(OC(N)=O)C(O)C(Oc2ccc3c(O)c(NC(=O)c4ccc(O)c(CC=C(C)C)c4)c(=O)oc3c2C)OC1(C)C")
1
>>> category_label("CCCS(=O)(=O)Nc1ccc(F)c(C(=O)c2c[nH]c3ncc(-c4ccc(Cl)cc4)cc23)c1F + Nc1ccc(C#CCN(C(=O)Cc2ncc(C(F)(F)F)cc2C(F)(F)F)c2ccc(F)cc2)nn1")
0
>>> category_label("CC1COCCN1c1cc(-c2ccnn2C)c2ccnc(-c3ccn[nH]3)c2n1 (configuration not stated) + Nc1ccc(C#CCN(C(=O)Cc2ncc(C(F)(F)F)cc2C(F)(F)F)c2ccc(F)cc2)nn1")
1

Problem: Is the reported viability, T/C for CC1COCCN1c1cc(C2(O)CC3CCC(C2)O3)c2cnn(-c3ccn[nH]3)c2n1 (configuration not stated) + Cc1cccc(N(C)C(=O)C2C(O)CCN2c2nc(C)cc(C(F)(F)F)c2C#N)c1 strictly below 50%?
Result: 1

Problem: Determine if O=C(c1cc(Cc2n[nH]c(=O)c3ccccc23)ccc1F)N1CCN(C(=O)C2CC2)CC1 + Cc1cccc(N(C)C(=O)C2C(O)CCN2c2nc(C)cc(C(F)(F)F)c2C#N)c1 shows viability, T/C strictly lower than 50%.
Result: 0

Problem: Input CCc1cc2c(N3CCc4c(cc(Cn5ccnc5)cc4-c4cn(C)nc4C(F)(F)F)C3=O)ccnc2c(OC)n1 + Nc1ccc(C#CCN(C(=O)Cc2ncc(C(F)(F)F)cc2C(F)(F)F)c2ccc(F)cc2)nn1 ; condition: viability, T/C strictly below 50%. Does it hold?
Result: 0
